system tested: T1, Factor VIIIa (recombinant FVIII, Kogenate FS, activated with alpha-thrombin) (UniProt P00451 20-2351)
T1 construct: also called FVIIIa
T1 sequence (looked up): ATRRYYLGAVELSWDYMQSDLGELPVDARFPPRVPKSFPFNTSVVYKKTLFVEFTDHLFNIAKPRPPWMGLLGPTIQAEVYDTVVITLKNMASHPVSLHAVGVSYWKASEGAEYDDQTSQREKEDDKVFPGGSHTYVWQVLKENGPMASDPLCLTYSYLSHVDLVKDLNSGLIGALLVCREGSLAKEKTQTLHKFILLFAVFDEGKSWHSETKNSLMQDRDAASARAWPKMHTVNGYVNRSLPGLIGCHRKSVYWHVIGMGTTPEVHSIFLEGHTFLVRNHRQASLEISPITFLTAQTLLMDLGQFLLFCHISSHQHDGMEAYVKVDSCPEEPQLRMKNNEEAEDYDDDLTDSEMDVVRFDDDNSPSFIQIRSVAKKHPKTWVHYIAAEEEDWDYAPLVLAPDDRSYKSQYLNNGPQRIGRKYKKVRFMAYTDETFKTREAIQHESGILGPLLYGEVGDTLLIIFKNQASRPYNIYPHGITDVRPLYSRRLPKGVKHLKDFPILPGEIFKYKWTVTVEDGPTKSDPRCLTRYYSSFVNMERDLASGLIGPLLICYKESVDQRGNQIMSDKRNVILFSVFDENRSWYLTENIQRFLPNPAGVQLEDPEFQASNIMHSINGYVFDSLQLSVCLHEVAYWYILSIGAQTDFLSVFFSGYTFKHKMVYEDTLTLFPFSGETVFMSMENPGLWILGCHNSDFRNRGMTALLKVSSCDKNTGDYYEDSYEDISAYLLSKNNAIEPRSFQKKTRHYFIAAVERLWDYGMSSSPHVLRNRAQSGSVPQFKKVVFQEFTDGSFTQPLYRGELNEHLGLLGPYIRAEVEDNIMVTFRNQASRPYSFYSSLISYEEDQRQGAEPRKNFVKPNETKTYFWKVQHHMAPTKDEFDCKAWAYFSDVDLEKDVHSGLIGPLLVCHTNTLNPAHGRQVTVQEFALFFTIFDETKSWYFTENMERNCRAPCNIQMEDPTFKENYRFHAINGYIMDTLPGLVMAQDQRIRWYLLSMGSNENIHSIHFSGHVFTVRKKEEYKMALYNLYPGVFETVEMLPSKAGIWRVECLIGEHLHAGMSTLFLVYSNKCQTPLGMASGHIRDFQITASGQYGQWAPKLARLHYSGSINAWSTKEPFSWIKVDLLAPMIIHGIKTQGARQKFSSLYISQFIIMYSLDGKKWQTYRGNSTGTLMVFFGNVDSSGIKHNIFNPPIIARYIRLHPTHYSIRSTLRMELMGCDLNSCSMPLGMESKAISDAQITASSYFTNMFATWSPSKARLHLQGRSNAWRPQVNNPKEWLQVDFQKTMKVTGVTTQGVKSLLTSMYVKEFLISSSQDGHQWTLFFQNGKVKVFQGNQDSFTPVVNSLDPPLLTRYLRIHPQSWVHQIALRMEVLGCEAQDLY
method: functional cofactor affinity KD-app: fluorogenic FX activation (Xase) assay, FVIIIa titrated, PC/PS vesicles, saturating FX
attribute measured: Kd (nM)
Report the figure in nM without appending any unit label.

# annotated cases, reported Kd shown
{"columns": ["binder", "Kd, nM"],
 "data": [
  ["FIXa-R318Y/T343R/R403E/E410N (enzyme, also called R150Y/T175R/R233E/E240N (chymotrypsin numbering)) chain 1: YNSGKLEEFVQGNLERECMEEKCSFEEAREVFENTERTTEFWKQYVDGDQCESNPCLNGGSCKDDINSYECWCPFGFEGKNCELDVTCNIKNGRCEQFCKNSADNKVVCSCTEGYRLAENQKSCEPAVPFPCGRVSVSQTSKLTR chain 2: VVGGEDAKPGQFPWQVVLNGKVDAFCGGSIVNEKWIVTAAHCVETGVKITVVAGEHNIEETEHTEQKRNVIRIIPHHNYNAAINKYNHDIALLELDEPLVLNSYVTPICIADKEYTNIFLKFGSGYVSGWGRVFHKGYSALVLQYLRVPLVDRATCLRSTKFRIYNNMFCAGFHEGGRDSCQGDSGGPHVTEVEGTSFLTGIISWGEECAMKGKYGIYTKVSEYVNWIKNKTKLT", 84.1],
  ["FIXa-Y155F/K247N/N249S/R338E/E410N (enzyme) chain 1: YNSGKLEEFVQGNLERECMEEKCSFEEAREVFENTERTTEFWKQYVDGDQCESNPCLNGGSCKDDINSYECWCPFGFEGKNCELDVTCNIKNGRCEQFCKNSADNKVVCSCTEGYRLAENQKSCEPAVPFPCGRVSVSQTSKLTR chain 2: VVGGEDAKPGQFPWQVVLNGKVDAFCGGSIVNEKWIVTAAHCVETGVKITVVAGEHNIEETEHTEQNRSVIRIIPHHNYNAAINKYNHDIALLELDEPLVLNSYVTPICIADKEYTNIFLKFGSGYVSGWGRVFHKGRSALVLQYLRVPLVDRATCLESTKFTIYNNMFCAGFHEGGRDSCQGDSGGPHVTEVEGTSFLTGIISWGEECAMKGKYGIYTKVSRYVNWIKNKTKLT", 24.9],
  ["FIXa-Y155F/R338E/T343R/R403E/E410N (enzyme) chain 1: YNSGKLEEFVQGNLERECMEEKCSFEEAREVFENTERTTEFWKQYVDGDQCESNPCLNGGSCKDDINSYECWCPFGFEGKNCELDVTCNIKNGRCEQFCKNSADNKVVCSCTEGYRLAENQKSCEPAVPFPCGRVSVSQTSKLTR chain 2: VVGGEDAKPGQFPWQVVLNGKVDAFCGGSIVNEKWIVTAAHCVETGVKITVVAGEHNIEETEHTEQKRNVIRIIPHHNYNAAINKYNHDIALLELDEPLVLNSYVTPICIADKEYTNIFLKFGSGYVSGWGRVFHKGRSALVLQYLRVPLVDRATCLESTKFRIYNNMFCAGFHEGGRDSCQGDSGGPHVTEVEGTSFLTGIISWGEECAMKGKYGIYTKVSEYVNWIKNKTKLT", 28.5],
  ["FIXa-Y155F/K247N/N249S/R318Y/R338E/T343R (enzyme) chain 1: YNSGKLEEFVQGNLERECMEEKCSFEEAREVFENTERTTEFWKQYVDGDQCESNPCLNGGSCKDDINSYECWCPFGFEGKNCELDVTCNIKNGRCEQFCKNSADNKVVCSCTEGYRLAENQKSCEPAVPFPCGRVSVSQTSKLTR chain 2: VVGGEDAKPGQFPWQVVLNGKVDAFCGGSIVNEKWIVTAAHCVETGVKITVVAGEHNIEETEHTEQNRSVIRIIPHHNYNAAINKYNHDIALLELDEPLVLNSYVTPICIADKEYTNIFLKFGSGYVSGWGRVFHKGYSALVLQYLRVPLVDRATCLESTKFRIYNNMFCAGFHEGGRDSCQGDSGGPHVTEVEGTSFLTGIISWGEECAMKGKYGIYTKVSRYVNWIKEKTKLT", 14]
]}

# input for lookup
What does the record list as Kd for FIXa-R338E/T343R/R403E/E410N (enzyme, also called R170E/T175R/R233E/E240N (chymotrypsin numbering)) chain 1: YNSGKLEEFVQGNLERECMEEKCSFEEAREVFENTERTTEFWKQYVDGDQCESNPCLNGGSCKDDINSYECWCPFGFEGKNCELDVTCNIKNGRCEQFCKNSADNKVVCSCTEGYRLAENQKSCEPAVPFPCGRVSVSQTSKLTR chain 2: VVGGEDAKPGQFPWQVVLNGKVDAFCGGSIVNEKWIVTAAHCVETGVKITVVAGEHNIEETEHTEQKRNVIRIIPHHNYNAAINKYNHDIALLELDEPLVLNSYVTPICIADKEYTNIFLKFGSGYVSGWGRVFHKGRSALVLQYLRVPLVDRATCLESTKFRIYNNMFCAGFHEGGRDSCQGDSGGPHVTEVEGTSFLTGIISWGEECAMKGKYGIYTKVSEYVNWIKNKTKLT ?
29.4
